Recorded growth inhibition values for a group of molecules are listed next.
Experiment: NCI Yeast Anticancer Drug Screen. Data for the rad50 strain (AID 155);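 note: 0% = growth of vehicle-only cultures of the same strain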
Conditions: S. cerevisiae rad50 strain growth inhibition; at 50.0 µM; hits give high values
This is part of a sample that, as a whole, favours compounds with a hit. Of some 79,000 tested, about 15% had one in any assay.
Just the number in %, nothing appended.

Reference set, count: 5
molecule | units text | growth inhibition
COc1cc(N(CCCl)CCCl)ccc1C=Nc1cccc(Cl)c1 | % | 84
S=P(Nc1ccccc1)(Nc1ccccc1)Oc1ccccc1 | % | 99
C=CCCCCCCCCC(=O)O (tested in a mixture with another compound) | % | 23.1
CC1=C(N2CC2)C(=O)c2ccccc2C1=O | % | 53.7
CCC1(O)C(=O)OCc2c1cc1n(c2=O)Cc2cc3ccccc3nc2-1 (stereo not drawn) | % | 86.2

Now for the molecule whose growth inhibition we want.
Short answer for COc1cc(C2c3cc4c(cc3[C@@H](Nc3ccc(N)cc3)C3COC(=O)[C@H]23)OCO4)cc(OC)c1O (stereo partly drawn) : growth inhibition was 82.8

###

Assay: NCI Yeast Anticancer Drug Screen. Data for the mlh1 rad18 strain (AID 175)
Conditions: S. cerevisiae mlh1 rad18 strain growth inhibition; at 50.0 µM; hits give high values
Compounds without any hit were thinned out: in the full panel of roughly 79,000, 15% have a hit.
Label class 0 if growth inhibition falls below 90%; label class 1 in every other case.

Use the examples below as a reference point.
molecule | discrete label
N#Cc1ccc([Se]c2ccccc2)cc1 | class 0
CC(=O)O[C@H]1CC[C@H]2[C@@H]3CC[C@H]4CC(=O)CC[C@@H]4[C@H]3CC[C@]12C | class 0
Cn1c(=O)c2[nH]cnc2n(C)c1=O.[CH2-]C(Cc1cccc2cc(C(=O)O)c(=O)oc12)OC.[Hg+2].[OH-] (centres undefined) | class 1
CC1=C(CO)C(=O)OC(C(C)C2CCC3C4CC5OC56C(O)C(N5CC5)=CC(=O)C6(C)C4CCC23C)C1 (centres undefined) | class 0
N#CC(Nc1c(N)nc(-c2ccccc2)nc1N)c1ccc(N(CCCl)CCCl)cc1 (centres undefined) | class 0
COc1cc([C@@H]2c3cc4c(cc3C[C@@H]3COC(=O)C32)OCO4)cc(OC)c1O (some centres undefined) | class 1

Could you now look at the following molecule, please?
IN: Entry `C[CH2][Sn][CH2]C.c1cc[c]([Ge]([c]2ccccc2)[c]2ccccc2)cc1.c1cc[c]([Sn]([c]2ccccc2)[c]2ccccc2)cc1` : is its growth inhibition no less than 90%?
OUT: class 1

###

Experiment: NCI Yeast Anticancer Drug Screen. Data for the rad18 strain (AID 177)
Settings: S. cerevisiae rad18 mutant growth inhibition; at 100.0 µM
About 79,000 compounds went through this panel and 15% of them were active in at least one assay; those are over-represented in the sample as a whole. Calls of active or inactive are those of the source. No stated cut-off is given here; in the data, active means growth inhibition above about 70%; inactive means the rest.
Answer with one of the outcomes given here: T (active), F (inactive)

Use the examples below as a reference point.
compound | discrete label
CN(N=O)C(=O)NNC(=O)N(C)N=O | T
CC1CN=C(Nc2ccccc2)S1 (configuration not stated) | F
COc1cc(C2c3cc4c(cc3[C@@H](Nc3ccc(N)cc3)C3COC(=O)[C@H]23)OCO4)cc(OC)c1O (some centres not stated) | T
OC1(c2ccccc2)CC2CCC(C1)N2CCCC(O)(c1ccccc1)c1ccccc1 (configuration not stated) | F
CN(C)CCSC1=Nc2ccc(Cl)cc2C(c2ccccc2Cl)=NC1 | F

Could you now look at the following compound, please?
IN: Hi, sorry to bother you, what did the test record for `Cc1cc[n+](C2=C(Nc3cccc(C(F)(F)F)c3)C(=O)c3ccccc3C2=O)cc1` ?
OUT: F
